B1: Protein piccolo, residues 1058 to 1114; numbered along this chain, Q9Y6V0 (parent)
chain: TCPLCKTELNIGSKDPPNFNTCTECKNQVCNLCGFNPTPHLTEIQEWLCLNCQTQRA

- Variants of: B1
- experimental.protocol: abundance fitness (aPCA) (normalised: wild type 0, dead -1); higher = more abundant; growth selection in yeast, the domain comes from the species named
- condition: Homo sapiens
measurement.label: abundance fitness
Numbers only.

Known abundance fitness results, listed for orientation:
residue.sequence	assay.value
TCPLCKTELNIGSKDPPNFNTCTECKNQGCNLCGFNPTPHLTEIQEWLCLNCQTQRA [V29G]	-0.198
TCPLCKTELNIGSKDPPNFNTCTECKNQVCNLCGFNPTPHLTEIQEWLCLNCCTQRA [Q53C]	-0.464
TCPLCKTELNIGSKDPPNFNTCTECKNQVCNLCGFNPTPHLGEIQEWLCLNCQTQRA [T42G]	0.122
TCPLCKTELNIGSKDPPNFNTCTECKNQVCNLCGFNPTPHLTEIWEWLCLNCQTQRA [Q45W]	0.233
TCPLCKTELNIGSKDPPNFNTCTECKNQVRNLCGFNPTPHLTEIQEWLCLNCQTQRA [C30R]	-0.541
TCPLCKTELNIGSKDPPNFNTCTECKNQVCNLIGFNPTPHLTEIQEWLCLNCQTQRA [C33I]	-0.933
TCPLCKTELNIGSKDPPNFNTCTECKNKVCNLCGFNPTPHLTEIQEWLCLNCQTQRA [Q28K]	-0.265
TCPLCKTELNIGSKDPPNFQTCTECKNQVCNLCGFNPTPHLTEIQEWLCLNCQTQRA [N20Q]	0.094

State the recorded abundance fitness for every item in the following list.
1. TCPLCKTELNIYSKDPPNFNTCTECKNQVCNLCGFNPTPHLTEIQEWLCLNCQTQRA [G12Y]
2. TCPLCKTELNIGSQDPPNFNTCTECKNQVCNLCGFNPTPHLTEIQEWLCLNCQTQRA [K14Q]
3. TCPLCKTELNIGSKDMPNFNTCTECKNQVCNLCGFNPTPHLTEIQEWLCLNCQTQRA [P16M]
4. TCPLCKTELNIGSKDPPNFNTCTECKNQVANLCGFNPTPHLTEIQEWLCLNCQTQRA [C30A]
5. TCPLCKTELNITSKDPPNFNTCTECKNQVCNLCGFNPTPHLTEIQEWLCLNCQTQRA [G12T]

1. -0.137
2. -0.092
3. -0.09
4. -0.562
5. 0.035

Would you be so kind as to report abundance fitness for each listed record?
1. TCPLCKKELNIGSKDPPNFNTCTECKNQVCNLCGFNPTPHLTEIQEWLCLNCQTQRA [T7K]
2. TCPLCKTELNIGSKDPPNFNTCTECKNQVCNLCGFNPTPHLTEIQEALCLNCQTQRA [W47A]
3. TCRLCKTELNIGSKDPPNFNTCTECKNQVCNLCGFNPTPHLTEIQEWLCLNCQTQRA [P3R]
4. TCPLCKTILNIGSKDPPNFNTCTECKNQVCNLCGFNPTPHLTEIQEWLCLNCQTQRA [E8I]

1. 0.043
2. -0.102
3. -0.175
4. -0.153

What value of abundance fitness has been recorded for this entry: TCPLCKTELNIGSKDPPNFNTCTECKNQVCNLCGFNPTPHLTEIQEWPCLNCQTQRA [L48P]
-0.318

These entries and their values trace back to the Human Domainome abundance scans (Beltran et al. 2025).
